The measurements presented in this section are drawn from patent US9931347B2.

Target: IDO (SKOV3 human ovarian adenocarcinoma cells, IFN-γ induced) (Homo sapiens, UniProt P14902)
Construct: IDO expression was induced in the SKOV3 cells by the addition of 500 ng/ml IFN-γ; endogenous in cells; host or cells: SKOV3 human ovarian adenocarcinoma cells, induced with IFN-γ
Sequence (P14902 whole entry): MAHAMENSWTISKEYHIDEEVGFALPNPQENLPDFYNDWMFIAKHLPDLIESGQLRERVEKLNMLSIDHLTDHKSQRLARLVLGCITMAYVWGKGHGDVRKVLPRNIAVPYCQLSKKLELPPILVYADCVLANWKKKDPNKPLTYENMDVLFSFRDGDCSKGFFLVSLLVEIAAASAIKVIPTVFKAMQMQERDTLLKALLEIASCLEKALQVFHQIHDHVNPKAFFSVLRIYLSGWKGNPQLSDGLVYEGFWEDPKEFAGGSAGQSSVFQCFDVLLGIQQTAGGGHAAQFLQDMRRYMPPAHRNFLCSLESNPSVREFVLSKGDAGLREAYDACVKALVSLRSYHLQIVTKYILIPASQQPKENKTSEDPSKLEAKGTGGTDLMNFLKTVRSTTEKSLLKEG
Test: SKOV3 Kynurenine cell based assay
Conditions: IDO induced by 500 ng/ml IFN-γ, 500 μM L-tryptophan, 48 hours
experimental.endpoint: SKOV3 Kynurenine cell based assay pIC50

Field: example entries. Status: answers known.
{"columns": ["compound.structure", "SKOV3 Kynurenine cell based assay pIC50"],
 "data": [
  ["CC(=O)N1CC=C(c2c[nH]c3ccc(Cl)cc23)CC1", "+ (+ = pIC50 4.00-4.99)"],
  ["CC(C)OCC(=O)N1CC=C(c2c[nH]c3cc(F)ccc23)CC1", "+ (+ = pIC50 4.00-4.99)"],
  ["CCN(CC)S(=O)(=O)N1CCC(c2c[nH]c3ccccc23)CC1", "+ (+ = pIC50 4.00-4.99)"],
  ["CS(=O)(=O)N1CCC(c2c[nH]c3cnccc23)CC1", "+ (+ = pIC50 4.00-4.99)"],
  ["O=C(CC1CC1)N1CCC(c2c[nH]c3cc(F)ccc23)CC1", "+ (+ = pIC50 4.00-4.99)"],
  ["CC(=O)N1CCC(c2c[nH]c3ccc(Cl)cc23)CC1", "+ (+ = pIC50 4.00-4.99)"]
]}

Now look at this one.
Short answer for O=C(Cc1cccs1)N1CCC(c2c[nH]c3ccccc23)CC1 : SKOV3 Kynurenine cell based assay pIC50 was + (+ = pIC50 4.00-4.99)

* * *

Target: IDO (SKOV3 human ovarian adenocarcinoma cells, IFN-γ induced) (Homo sapiens, UniProt P14902)
Construct: IDO expression was induced in the SKOV3 cells by the addition of 500 ng/ml IFN-γ; endogenous in cells; host or cells: SKOV3 human ovarian adenocarcinoma cells, induced with IFN-γ
Assay: SKOV3 Kynurenine cell based assay
Settings: IDO induced by 500 ng/ml IFN-γ, 500 μM L-tryptophan, 48 hours

{"columns": ["compound.structure", "SKOV3 Kynurenine cell based assay pIC50"],
 "data": [
  ["Cc1cccc2c(C3CCN(S(=O)(=O)c4ccc5c(c4)CN(C(=O)C(F)(F)F)CC5)CC3)c[nH]c12", "+ (+ = pIC50 4.00-4.99)"],
  ["CC(=O)N1CCC(c2c[nH]c3ccncc23)CC1", "+ (+ = pIC50 4.00-4.99)"],
  ["Cc1cccc2c(C3CCN(C(=O)c4ccccc4OC(F)(F)F)CC3)c[nH]c12", "+ (+ = pIC50 4.00-4.99)"]
]}

* * *

Biological target: TDO (A172 human glioblastoma cells) (Homo sapiens)
Construct: This assay utilised cancer cells which expressed either TDO or IDO; endogenous in cells; host or cells: A172 human glioblastoma cells
Sequence (P48775 whole entry): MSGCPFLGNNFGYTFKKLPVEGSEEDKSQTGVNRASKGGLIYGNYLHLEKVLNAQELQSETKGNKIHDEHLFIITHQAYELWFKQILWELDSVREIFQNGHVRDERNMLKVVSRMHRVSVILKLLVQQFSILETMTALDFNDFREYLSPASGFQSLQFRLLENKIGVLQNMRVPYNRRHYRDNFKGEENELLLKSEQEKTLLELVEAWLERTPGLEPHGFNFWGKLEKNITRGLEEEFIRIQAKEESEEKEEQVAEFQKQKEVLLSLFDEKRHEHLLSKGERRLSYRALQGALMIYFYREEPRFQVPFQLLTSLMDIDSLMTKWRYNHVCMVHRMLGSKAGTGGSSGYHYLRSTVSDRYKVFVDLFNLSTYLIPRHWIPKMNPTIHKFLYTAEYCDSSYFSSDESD
Test: A172 Kynurenine cell based assay
Conditions: 500 μM L-tryptophan, 48 hours, kynurenine by Erhlich's reagent
experimental.endpoint: A172 Kynurenine cell based assay pIC50

Completed entries (count: 5):
{"columns": ["compound", "target.or.system", "A172 Kynurenine cell based assay pIC50"],
 "data": [
  ["CS(=O)(=O)N1CCC(c2c[nH]c3ccccc23)C(O)C1 (stereo not drawn) [Compound 187]", "TDO (A172 human glioblastoma cells) (Homo sapiens)", "+ (+ = pIC50 4.00-4.99)"],
  ["CS(=O)(=O)N1CCN(c2c[nH]c3ccccc23)CC1 [Compound 108]", "TDO (A172 human glioblastoma cells) (Homo sapiens)", "+ (+ = pIC50 4.00-4.99)"],
  ["CCCC(=O)N1CCC(c2c[nH]c3ccccc23)CC1 [Compound 83]", "TDO (A172 human glioblastoma cells) (Homo sapiens)", "+ (+ = pIC50 4.00-4.99)"],
  ["CC(=O)Nc1ccc(S(=O)(=O)N2CCC(c3c[nH]c4ccccc34)CC2)cc1Cl [Compound 52]", "TDO (A172 human glioblastoma cells) (Homo sapiens)", "+− (+− = pIC50 <4.00)"],
  ["CC(=O)N1CC=C(c2n[nH]c3ccccc23)CC1 [Compound 102]", "TDO (A172 human glioblastoma cells) (Homo sapiens)", "+− (+− = pIC50 <4.00)"]
]}

// next item, A172 Kynurenine cell based assay pIC50 requested
For this compound ( Cn1cccc1C(=O)N1CCC(c2c[nH]c3cc(F)ccc23)CC1 [Compound 278] ), measured A172 Kynurenine cell based assay pIC50 is + (+ = pIC50 4.00-4.99)

* * *

Molecular target: Recombinant human TDO (Homo sapiens)
Test: hTDO biochemical coupled assay
Details: 330 μM L-tryptophan, coupled with kynurenine formamidase
experimental.endpoint: hTDO biochemical assay pIC50

{"columns": ["compound", "experimental.endpoint", "result"],
 "data": [
  ["COc1ccc(Br)cc1S(=O)(=O)N1CCC(c2c[nH]c3ccc(F)cc23)CC1 [Compound 27]", "hTDO biochemical assay pIC50", "+− (+− = pIC50 <4.00)"],
  ["Cn1cc(C2=CCN(S(C)(=O)=O)CC2)c2ccccc21 [Compound 204]", "hTDO biochemical assay pIC50", "+ (+ = pIC50 4.00-4.99)"],
  ["CS(=O)(=O)N1CC=C(c2c[nH]c3cccc(F)c23)CC1 [Compound 78]", "hTDO biochemical assay pIC50", "+ (+ = pIC50 4.00-4.99)"],
  ["O=C(C1CC1)N1CCC(c2c[nH]c3cc(F)ccc23)CC1 [Compound 265]", "hTDO biochemical assay pIC50", "+ (+ = pIC50 4.00-4.99)"],
  ["CC(=O)N1CC=C(c2n[nH]c3ccccc23)CC1 [Compound 102]", "hTDO biochemical assay pIC50", "+ (+ = pIC50 4.00-4.99)"]
]}

Case CCCC(=O)N1CCC(c2c[nH]c3ccccc23)CC1 [Compound 83] , Recombinant human TDO (Homo sapiens), hTDO biochemical assay pIC50 recorded as +− (+− = pIC50 <4.00)

CCc1cc(Br)ccc1S(=O)(=O)N1CCC(c2c[nH]c3ccc(OC)cc23)CC1 [Compound 29] tested on Recombinant human TDO (Homo sapiens) gave hTDO biochemical assay pIC50: +− (+− = pIC50 <4.00)

Lab entry: Recombinant human TDO (Homo sapiens) assay, compound CS(=O)(=O)N1CC=C(c2c[nH]c3cc(Cl)c(F)cc23)CC1 [Compound 227] , hTDO biochemical assay pIC50 = + (+ = pIC50 4.00-4.99)

* * *

Molecular target: Recombinant human TDO (Homo sapiens, UniProt P48775)
Sequence (P48775 whole entry): as the sequence (P48775 whole entry) above
Assay: hTDO biochemical coupled assay
Conditions: 330 μM L-tryptophan, coupled with kynurenine formamidase
experimental.endpoint: hTDO biochemical assay pIC50

Example entries begin here.
{"columns": ["molecule", "hTDO biochemical assay pIC50"],
 "data": [
  ["COCC(=O)N1CCC(c2c[nH]c3ccccc23)CC1 [Compound 84]", "+− (+− = pIC50 <4.00)"],
  ["Cn1cnc(S(=O)(=O)N2CCC(c3c[nH]c4ccccc34)CC2)c1 [Compound 4]", "+ (+ = pIC50 4.00-4.99)"],
  ["O=S(=O)(C1CC1)N1CCC(c2c[nH]c3cc(F)ccc23)CC1 [Compound 288]", "+ (+ = pIC50 4.00-4.99)"],
  ["COc1ccc2[nH]cc(C3CCN(C(C)=O)CC3)c2c1 [Compound 199]", "+ (+ = pIC50 4.00-4.99)"],
  ["O=S1(=O)CCC2CN(c3c[nH]c4ccccc34)CCN21 (stereo not drawn) [Compound 304]", "+ (+ = pIC50 4.00-4.99)"],
  ["CC(=O)N1CCC(c2c[nH]c3cccc(F)c23)CC1 [Compound 98]", "+− (+− = pIC50 <4.00)"],
  ["O=C(Cc1cccs1)N1CCC(c2c[nH]c3ccccc23)CC1 [Compound 19]", "+− (+− = pIC50 <4.00)"]
]}

Entry Cc1ccc(S(=O)(=O)N2CCC(c3c[nH]c4ccccc34)CC2)cc1 [Compound 9] , hTDO biochemical assay pIC50 reported as +− (+− = pIC50 <4.00)

* * *

Target: IDO (SKOV3 human ovarian adenocarcinoma cells, IFN-γ induced) (Homo sapiens, UniProt P14902)
Construct: IDO expression was induced in the SKOV3 cells by the addition of 500 ng/ml IFN-γ; endogenous in cells; host or cells: SKOV3 human ovarian adenocarcinoma cells, induced with IFN-γ
Test: SKOV3 Kynurenine cell based assay
Conditions: IDO induced by 500 ng/ml IFN-γ, 500 μM L-tryptophan, 48 hours
experimental.endpoint: SKOV3 Kynurenine cell based assay pIC50

Worked set:
{"columns": ["compound", "SKOV3 Kynurenine cell based assay pIC50"],
 "data": [
  ["CCCc1ccc(S(=O)(=O)N2CCC(c3c[nH]c4c(C)cccc34)CC2)cc1 [Compound 48]", "+ (+ = pIC50 4.00-4.99)"],
  ["CC(=O)N1CCC(c2c[nH]c3ccc(C#N)cc23)CC1 [Compound 233]", "+ (+ = pIC50 4.00-4.99)"],
  ["CS(=O)(=O)N1CCC(c2c[nH]c3cccc(F)c23)CC1 [Compound 95]", "+− (+− = pIC50 <4.00)"],
  ["CC(=O)N1CC=C(c2c[nH]c3cc(Cl)ccc23)CC1 [Compound 79]", "+ (+ = pIC50 4.00-4.99)"],
  ["CN(C)S(=O)(=O)N1CCC(c2c[nH]c3cc(F)ccc23)CC1 [Compound 250]", "+ (+ = pIC50 4.00-4.99)"],
  ["CC(=O)N1CC=C(c2n[nH]c3ccccc23)CC1 [Compound 102]", "+− (+− = pIC50 <4.00)"],
  ["CS(=O)(=O)N1CC=C(c2c[nH]c3ccncc23)CC1 [Compound 170]", "+ (+ = pIC50 4.00-4.99)"]
]}

Field: next compound
SKOV3 Kynurenine cell based assay pIC50 in this record for Cc1ccc2[nH]cc(C3=CCN(S(C)(=O)=O)CC3)c2c1 [Compound 92] : + (+ = pIC50 4.00-4.99)
